Data origin, for the record: the supplement of paper PMC10126150

Listed below: switch fluorescence ratio values for each entry.
Tested on: ATP;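 note: ATP exposure 15 min at 22 °C before imaging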
test-description: switch fluorescence ratio, 500 uM ATP over buffer (Cy3 cluster intensity, sum of 5 cycles each) (fold (ratio)); higher = stronger signal-on switching upon ATP binding; sequences stand for … in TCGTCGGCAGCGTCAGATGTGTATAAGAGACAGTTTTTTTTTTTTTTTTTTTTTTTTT…TC
condition: aptamer strand: ATP DNA aptamer (quencher-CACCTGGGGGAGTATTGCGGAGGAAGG + anchor), 100 nM annealed; ATP concentration: 500 uM

residue-sequence | switch fluorescence ratio
GGATTGTATG | 0.994
GAAATCCGAA | 1.08
CCTGGGGGG | 1.02
AAGTTTTGTG | 0.987
GACCGGAGTC | 1.03
GCTTTTGGGT | 1
GTTATTTAGT | 0.967
ATGCAGAATT | 0.988
GCCCGGAGAC | 1.71
AAGTGCTGGG | 0.993
TATGCTAGTA | 0.992
AGAGAGGTCA | 0.997
AAAGTCGTTC | 0.977
AAAATATACA | 1.01
TTTTGGATAT | 1.28
GATAATGGTA | 1.01
TGCTATGGC | 1.09
TTTAGAGGAA | 0.977
TAATTGGGCT | 0.975
GCAAGAGTGA | 1.04
AGGCTCCGAG | 1.03
TGGGGGCGTC | 1.02
TGAGTTTTTA | 0.996
TGAGGTCAGG | 0.982
CATCCTTTAA | 1.01
GAAGGGGTTA | 1.03
ATCGCTTGAG | 0.972
TGGTAGGCGT | 0.987
TAGCTTAACA | 0.979
TTTGTAAAGG | 0.999
AGCTAGCGAT | 1.02
AGAGAGTAGA | 1.02
GGGCAAGGGT | 0.977
CCCGCGGTGT | 2.41
TATATGGGTA | 0.982
CACCTAATGT | 1.06
CAGTAGGGTC | 0.997
ATGTATATAA | 0.985
TCTAATTAGT | 0.993
TGGGACCAGG | 1.05
GCAGGTTGT | 1.01
CTTAAACAGC | 1.02
TGAAACGGAA | 1.15
